Measured values drawn from ChEMBL document CHEMBL4118111 for this set.

assayed system: D-3-phosphoglycerate dehydrogenase (Homo sapiens)
Sequence (O43175 whole entry): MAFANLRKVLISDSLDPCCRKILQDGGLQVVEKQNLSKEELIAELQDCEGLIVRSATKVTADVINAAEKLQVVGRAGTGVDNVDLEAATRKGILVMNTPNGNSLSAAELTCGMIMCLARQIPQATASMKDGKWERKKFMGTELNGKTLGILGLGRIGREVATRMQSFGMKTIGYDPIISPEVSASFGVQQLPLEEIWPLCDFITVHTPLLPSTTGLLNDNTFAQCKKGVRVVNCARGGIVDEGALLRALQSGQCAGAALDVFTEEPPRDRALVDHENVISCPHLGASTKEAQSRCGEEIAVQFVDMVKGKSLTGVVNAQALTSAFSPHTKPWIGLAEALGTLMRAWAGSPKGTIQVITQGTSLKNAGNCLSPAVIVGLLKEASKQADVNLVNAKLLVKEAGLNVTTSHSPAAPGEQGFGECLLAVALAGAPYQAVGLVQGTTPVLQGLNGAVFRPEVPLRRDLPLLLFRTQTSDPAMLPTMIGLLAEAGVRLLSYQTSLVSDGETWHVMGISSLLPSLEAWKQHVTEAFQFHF
Parameter: IC50. Scope: all listed entries.
measured parameter: IC50

>>> assay_value("FC(F)(F)c1cccc(N2CCN(C(=S)Nc3cccnc3)CC2)c1")
"8.9 µM"
>>> assay_value("Cc1cc(C)nc(NC(=S)N2CCCC(NCc3ccc(C(F)(F)F)cc3)C2)c1 (stereo unspecified)")
"12 µM"
>>> assay_value("Cc1cc(C)nc(NC(=S)N2CCN(c3cccc(C(F)(F)F)n3)CC2)c1")
"11 µM"
>>> assay_value("Cc1cc(C)nc(NC(=S)N2CCCC(Nc3cccc(C(F)(F)F)c3)C2)c1 (stereo unspecified)")
"7.2 µM"
>>> assay_value("Cc1cc(C)nc(NC(=S)N2CCCC(NC(=O)c3cccc(C(F)(F)F)c3)C2)c1 (stereo unspecified)")
"10 µM"
>>> assay_value("Cc1cc(C)nc(NC(=S)N(C)CCN(C)Cc2ccc(C(F)(F)F)cc2)c1")
"7.3 µM"
